Molecular target: anti-CD28 scFv (VH - linker 1 - VL) (biotinylated (site not stated))
Sequence (scFv, as listed by the source): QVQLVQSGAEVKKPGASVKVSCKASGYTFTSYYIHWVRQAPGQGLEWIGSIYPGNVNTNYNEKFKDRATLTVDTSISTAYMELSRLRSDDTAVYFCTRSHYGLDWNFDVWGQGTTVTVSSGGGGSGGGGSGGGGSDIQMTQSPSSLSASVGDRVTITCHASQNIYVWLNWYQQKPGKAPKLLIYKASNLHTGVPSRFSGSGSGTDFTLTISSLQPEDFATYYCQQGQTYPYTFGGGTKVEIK
Assay: phage ELISA; biotinylated anti-CD28 scFv on neutravidin plate, clonal phage supernatant, anti-M13-HRP detection;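 also: before phage addition, wells were pretreated with soluble CD28 protein in blocking buffer, or with blocking buffer only as the comparison, then phage were added without washing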
Where no end group is shown, it is not given here.
measurement.name: CD28 scFv signal
Enter a number only.

Answered examples (2):
binder	CD28 scFv signal
MDWCPIHLWHVCFN (peptide, not shown: large carriers, cysteine pairing not given here; also: displayed as fusion to phage pIII, Clonal phage supernatant) [Phage-20]	2.53
MDWCPIYLWSECFN (peptide, not shown: large carriers, Clonal phage supernatant) [Phage-21]	2.63

Okay, next one:
Problem: I am curious: what CD28 scFv signal value has been reported for MDWCPRDLWDLCFA (peptide, not shown: large carriers, cysteine pairing not given here; also: phage-displayed pIII fusion, pIII and linker not given here, Clonal phage supernatant) [Phage-25] ?
Solution: 2.7
